# measurement_target: Phosphatidylinositol 4,5-bisphosphate 3-kinase catalytic subunit delta isoform (Homo sapiens, UniProt O00329)
# Sequence (O00329 whole entry, canonical isoform): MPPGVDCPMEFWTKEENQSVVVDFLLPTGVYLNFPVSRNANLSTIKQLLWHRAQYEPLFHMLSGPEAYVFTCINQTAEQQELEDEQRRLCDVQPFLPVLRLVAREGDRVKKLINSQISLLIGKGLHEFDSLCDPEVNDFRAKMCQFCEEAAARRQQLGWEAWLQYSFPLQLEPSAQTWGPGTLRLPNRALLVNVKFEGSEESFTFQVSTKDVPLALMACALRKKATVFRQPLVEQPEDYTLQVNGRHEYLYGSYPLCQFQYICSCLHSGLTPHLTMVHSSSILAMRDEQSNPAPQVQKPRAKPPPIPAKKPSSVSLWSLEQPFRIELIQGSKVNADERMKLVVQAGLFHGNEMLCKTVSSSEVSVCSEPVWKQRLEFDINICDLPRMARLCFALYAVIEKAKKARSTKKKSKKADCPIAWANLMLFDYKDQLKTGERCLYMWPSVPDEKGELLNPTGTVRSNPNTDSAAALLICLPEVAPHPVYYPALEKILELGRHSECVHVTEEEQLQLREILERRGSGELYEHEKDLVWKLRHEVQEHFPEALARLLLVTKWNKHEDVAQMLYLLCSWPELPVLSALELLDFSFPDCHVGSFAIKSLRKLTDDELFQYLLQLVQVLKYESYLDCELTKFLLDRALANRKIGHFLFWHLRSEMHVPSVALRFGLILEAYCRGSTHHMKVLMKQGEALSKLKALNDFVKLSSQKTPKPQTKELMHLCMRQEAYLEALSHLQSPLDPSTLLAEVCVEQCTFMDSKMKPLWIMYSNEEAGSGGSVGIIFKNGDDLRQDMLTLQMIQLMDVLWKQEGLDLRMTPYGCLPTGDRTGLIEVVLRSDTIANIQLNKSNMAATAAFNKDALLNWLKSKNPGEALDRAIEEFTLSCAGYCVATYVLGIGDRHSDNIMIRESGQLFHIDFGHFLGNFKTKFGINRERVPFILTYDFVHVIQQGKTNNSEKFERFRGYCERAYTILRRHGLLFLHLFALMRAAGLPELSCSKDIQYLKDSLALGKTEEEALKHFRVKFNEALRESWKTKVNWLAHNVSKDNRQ
# test_protocol: Inhibition of PI3Kdelta (unknown origin) by biochemical Alphascreen assay
pIC50: −log10 of the molar value.
Given measured pIC50, output rule met if it is greater than or equal to 9 and rule not met if not.

Q) Form field: pIC50 at least 9? Entry: C[C@H](Nc1ncnc(N)c1C#N)c1nc2ccc(F)cc2c(NCCS(C)(=O)=O)c1-c1ccccc1
A) rule met

Q) // inclusive: pIC50 at least 9? input: CC(Nc1ncnc(N)c1C#N)c1nc2ccc(F)cc2cc1-c1ccccn1 (racemic)
A) rule not met

Q) Determine whether measured pIC50 meets or exceeds 9 for CC(Nc1ncnc(N)c1C#N)c1nc2ccc(F)cc2c(O)c1-c1ccccc1 (racemic)
A) rule not met

Q) Hi team, for C[C@H](Nc1ncnc(N)c1C#N)c1nc2ccc(F)cc2c(N2CC(O)C2)c1-c1ccccn1 , is the recorded pIC50 at or above 9?
A) rule not met

Q) Check the entry CC(Nc1ncnc(N)c1C#N)c1nc2ccc(F)cc2c(NCCO)c1-c1ccccc1 (racemic) : does pIC50 equal or exceed 9?
A) rule met

* * *

# measurement_target: Phosphatidylinositol 4,5-bisphosphate 3-kinase catalytic subunit alpha isoform (Homo sapiens)
# Sequence (P42336 whole entry, canonical isoform): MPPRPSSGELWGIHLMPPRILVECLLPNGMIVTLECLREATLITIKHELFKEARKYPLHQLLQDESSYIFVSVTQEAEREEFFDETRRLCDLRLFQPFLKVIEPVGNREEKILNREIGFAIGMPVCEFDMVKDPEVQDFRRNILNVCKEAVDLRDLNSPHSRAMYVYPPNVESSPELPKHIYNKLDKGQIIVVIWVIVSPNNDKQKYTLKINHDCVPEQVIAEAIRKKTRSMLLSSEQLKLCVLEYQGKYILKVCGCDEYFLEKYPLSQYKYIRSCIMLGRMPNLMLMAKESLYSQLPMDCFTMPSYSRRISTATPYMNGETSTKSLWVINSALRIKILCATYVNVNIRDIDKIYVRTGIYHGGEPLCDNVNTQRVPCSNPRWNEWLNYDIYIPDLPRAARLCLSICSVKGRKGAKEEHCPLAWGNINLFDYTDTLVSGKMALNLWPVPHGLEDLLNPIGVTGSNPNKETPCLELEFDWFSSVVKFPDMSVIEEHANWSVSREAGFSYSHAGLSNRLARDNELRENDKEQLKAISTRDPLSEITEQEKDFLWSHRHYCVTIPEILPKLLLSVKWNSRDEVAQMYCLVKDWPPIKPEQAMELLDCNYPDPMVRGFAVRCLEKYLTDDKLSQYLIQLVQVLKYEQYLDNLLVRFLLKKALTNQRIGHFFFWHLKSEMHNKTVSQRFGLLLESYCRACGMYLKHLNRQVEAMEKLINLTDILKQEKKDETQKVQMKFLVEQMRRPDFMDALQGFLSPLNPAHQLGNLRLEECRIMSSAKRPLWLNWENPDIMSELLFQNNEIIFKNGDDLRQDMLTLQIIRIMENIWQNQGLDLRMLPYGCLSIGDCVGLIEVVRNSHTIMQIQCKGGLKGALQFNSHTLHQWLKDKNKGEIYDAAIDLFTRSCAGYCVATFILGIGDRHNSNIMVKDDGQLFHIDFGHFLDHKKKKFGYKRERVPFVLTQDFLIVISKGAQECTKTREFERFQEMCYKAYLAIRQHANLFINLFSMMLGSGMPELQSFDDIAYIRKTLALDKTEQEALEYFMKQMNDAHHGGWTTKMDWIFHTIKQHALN
# test_protocol: Inhibition of PI3Kalpha (unknown origin) by biochemical Alphascreen assay
pIC50: −log10 of the molar value.
assay_metric: pIC50

Measured pIC50, Cc1cccnc1-c1c(-c2ccccn2)c([C@H](C)Nc2ncnc(N)c2C#N)nc2ccc(F)cc12 : < 4.70

Item: CC(Nc1ncnc(N)c1C#N)c1nc2ccc(F)cc2cc1-c1ccccn1 (racemic) | pIC50: < 4.70

Form: molecule = CC(Nc1ncnc(N)c1C#N)c1nc2ccc(F)cc2c(O)c1-c1ccccc1 (racemic) ; pIC50 = < 4.70

* * *

Please provide measured IC50 for the entries that follow.
# measurement_target: Phosphatidylinositol 4,5-bisphosphate 3-kinase catalytic subunit delta isoform (Homo sapiens)
# test_protocol: Inhibition of PI3Kdelta (unknown origin) by biochemical Alphascreen assay
Numeric only. Scale: nM

Query CC(Nc1ncnc(N)c1C#N)c1nc2ccc(F)cc2c(N(C)C)c1-c1ccccn1 (racemic) yields IC50 of 1.4

Per the record, COc1c(-c2ccccc2)c([C@H](C)Nc2ncnc(N)c2C#N)nc2ccc(F)cc12 has IC50 of 1.2

The reported IC50 of the compound C[C@H](Nc1ncnc(N)c1C#N)c1nc2ccc(F)cc2c(N2CCOCC2)c1-c1ccccn1 was 1.2

Short answer for COCCNc1c(-c2ccccc2)c([C@H](C)Nc2ncnc(N)c2C#N)nc2ccc(F)cc12 : IC50 was 0.6
